Measured values drawn from PubChem BioAssay (Tox21) for this set.

target: Cytochrome P450 3A4 (Homo sapiens); assay: Cytochrome P450 Family 3 Subfamily A Member 4 (CYP3A4) small molecule antagonists: luciferase reporter qHTS assay (AID 1671201); settings: P450-Glo CYP3A4 enzyme, luciferin luminescence, 1 h; series mostly up to 115 µM; also: nearly all actives have a fitted effect of over 50% in size
Records with an inconclusive call do not appear. Calls of active or inactive are those of the source. Calls follow the shape of the dose curve; as a rule, active = well fitted inhibition curve with a large enough effect in the repeat runs; inconclusive = weak or mixed curves; inactive = no such curve, though single readings can be large or run the other way.
Parameter call: string, one of active, inactive

compound | assay_system | group_label
C=C(C)[C@@H]1CC=C(C=O)CC1 | Cytochrome P450 3A4 (Homo sapiens) | active
C[C@]1(O)CC[C@H]2[C@@H]3CCC4=CC(=O)CC[C@]4(C)[C@@]3(F)[C@@H](O)C[C@@]21C | Cytochrome P450 3A4 (Homo sapiens) | inactive
c1cc2c(c(N3CCNCC3)c1)OCCO2 | Cytochrome P450 3A4 (Homo sapiens) | inactive
CC1=C(C(=O)Nc2ccccc2)S(=O)(=O)CCO1 | Cytochrome P450 3A4 (Homo sapiens) | inactive
CCN(CC)C(C)C(=O)c1ccccc1 (stereo not given) | Cytochrome P450 3A4 (Homo sapiens) | inactive
CCN(Cc1ccc(Cl)nc1)/C(=C/[N+](=O)[O-])NC | Cytochrome P450 3A4 (Homo sapiens) | inactive
O=C(Oc1ccc(Br)cc1)N1CCN2CCC1CC2 | Cytochrome P450 3A4 (Homo sapiens) | inactive
O=[N+]([O-])c1cccc2c([N+](=O)[O-])cccc12 | Cytochrome P450 3A4 (Homo sapiens) | active
CCOC(=O)NC(=S)Nc1ccccc1NC(=S)NC(=O)OCC | Cytochrome P450 3A4 (Homo sapiens) | active
CC(C)CP(=S)(S)CC(C)C | Cytochrome P450 3A4 (Homo sapiens) | active

Would you mind telling me which call this test gave `O=C(N[C@H]1CN2CCC1CC2)c1cc2ccoc2cn1` ? inactive

Would you mind telling me which call this test gave `O=S(=O)(O)C(F)(F)C(F)(F)C(F)(F)C(F)(F)C(F)(F)C(F)(F)F` ? inactive

Would you mind telling me which call this test gave CC(C1CC1)C(O)(Cn1cncn1)c1ccc(Cl)cc1 (stereo not given) ? active

Would you mind telling me which call this test gave `CC(C)COP(=O)(OCC(C)C)OCC(C)C` ? inactive

Would you mind telling me which call this test gave `CN1CCC(N(Cc2ccccc2)c2ccccc2)CC1` ? inactive

----------
assay: qHTS assay for small molecule agonists of the antioxidant response element (ARE) signaling pathway - cell viability counter screen (AID 743203); settings: ARE-bla HepG2 viability, CellTiter-Glo luminescence, 16 h; series mostly up to 73.3 µM; also: nearly all actives have a fitted effect of over 55% in size
Records with an inconclusive call do not appear. Calls of active or inactive are those of the source. Calls follow the shape of the full dose curve.
Parameter call: string, one of T for active, F for inactive

Use the examples below as a reference point.
compound | group_label
O=C(N[C@H]1CN2CCC1CC2)c1cc2ccoc2cn1 | F
Oc1c(Cl)cccc1Cl | F
O=C(O)C(Br)CBr (stereo not given) | F
CC1CCC(=O)O1 (stereo not given) | F
COC(=O)c1c(C(F)F)nc(C(F)(F)F)c(C2=NCCS2)c1CC(C)C | F

Would you mind telling me which call this test gave `COc1cc(OC)nc(NC(=O)NS(=O)(=O)c2ncccc2OCC(F)(F)F)n1` ? F

Would you mind telling me which call this test gave `COP(=S)(OC)Oc1ccc(S(N)(=O)=O)cc1` ? F

Would you mind telling me which call this test gave `CCOP(=S)(OCC)SCSc1ccc(Cl)cc1` ? F

Would you mind telling me which call this test gave C=CC1CC=CCC1 (stereo not given) ? F
